- ASSAY_TARGET: mouse ACVR2A (mouse, UniProt P27038 20-135, limits assumed); also: test concentration or dose not given here
- Sequence (P27038 20-135 limits assumed): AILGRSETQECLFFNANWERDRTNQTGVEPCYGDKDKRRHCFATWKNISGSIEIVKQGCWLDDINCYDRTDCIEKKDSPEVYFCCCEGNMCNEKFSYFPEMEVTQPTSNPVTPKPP
- ASSAY: ELISA

# BINDER, optical density, OD
data = [
    ("365_G04 (antibody, V domains shown, Group III) VH: EVQLLESGGGLVQPGGSLRLSCAASGFTFDSYSMNWVRQAPGKGLEWVAGINYNGGYTGYADSVKGRFTISRDNSKNTLYLQMNSLRAEDTAVYYCARGANWHDTHLDYWGQGTLVTVSS VL: DIQMTQSPSSLSASVGDRVTITCRASQSIVSYVNWYQQKPGKAPKLVIYAATSLASGVPSRFSGSGSGTDFTLTISSLQPEDFATYYCQQSYDTPLTFGGGTKVEIK", 2.48),
    ("366_G12 (antibody, V domains shown, Group III) VH: EVQLLESGGGLVQPGGSLRLSCAASGFTFSSYGMHWVRQAPGKGLEWVSGINYNSGYKGYADSVKGRFTISRDNSKNTLYLQMNSLRAEDTAVYYCARGANWHDTHLDYWGQGTLVTVSS VL: DIQMTQSPSSLSASVGDRVTITCRASQSILSYLNWYQQKPGKAPKLLIYAATSRHSGVPSRFSGSGSGTDFTLTISSLQPEDFATYYCQQSYNTPLTFGGGTKVEIK", 2.83),
    ("366_F02 (antibody, V domains shown, Group III) VH: EVQLLESGGGLVQPGGSLRLSCAASGFTFSSYGMNWVRQAPGKGLEWVSGINYNSGYTGYADSVKGRFTISRDNSKNTLYLQMNSLRAEDTAVYYCARGANWHDTHLDYWGQGTLVTVSS VL: DIQMTQSPSSLSASVGDRVTITCRASQSILTYLNWYQQKPGKAPKLVIYAATSRHSGVPSRFSGSGSGTDFTLTISSLQPEDFATYYCQQSYDNPLTFGGGTKVEIK", 2.11),
]
